Target: Gonadotropin-releasing hormone receptor (Rattus norvegicus) (UniProt P30969)
Test: In vitro inhibition of LH release was determined in rat pituitary cells at a dose of 0.3 ug of analogue and 1 ng of LHRH
Format: functional, cell-based
Settings: Pituitary gland cell
Square brackets hold non-standard residues; d marks the D form. Peptide text beside a SMILES is read from it. 2Nal = N[C@@H](Cc1ccc2ccccc2c1)C(=O)O
reported_metric: Activity

[A] CCNC(=O)[C@@H]1CCCN1C(=O)[C@H](CC(C)C)NC(=O)[C@H](Cc1ccc2ccccc2c1)NC(=O)[C@H](Cc1ccc(O)cc1)NC(=O)[C@H](CO)NC(=O)[C@H](Cc1ccc2ccccc2c1)NC(C)=O (Ac-[2Nal]SY[2Nal]LP-NHEt)
[B] CCNC(=O)[C@@H]1CCCN1C(=O)[C@H](CCCCNC(C)C)NC(=O)[C@H](CC(C)C)NC(=O)C(Cc1ccc2ccccc2c1)NC(=O)[C@H](Cc1ccc(O)cc1)NC(=O)[C@H](CO)NC(=O)C(Cc1ccc2ccccc2c1)NC(C)=O (stereo in doubt)
Looking only at measured Activity, which entry is lower, A or B ? Pick one; state its label. B

###

Target: Gonadotropin-releasing hormone receptor (Rattus norvegicus)
Sequence (whole entry): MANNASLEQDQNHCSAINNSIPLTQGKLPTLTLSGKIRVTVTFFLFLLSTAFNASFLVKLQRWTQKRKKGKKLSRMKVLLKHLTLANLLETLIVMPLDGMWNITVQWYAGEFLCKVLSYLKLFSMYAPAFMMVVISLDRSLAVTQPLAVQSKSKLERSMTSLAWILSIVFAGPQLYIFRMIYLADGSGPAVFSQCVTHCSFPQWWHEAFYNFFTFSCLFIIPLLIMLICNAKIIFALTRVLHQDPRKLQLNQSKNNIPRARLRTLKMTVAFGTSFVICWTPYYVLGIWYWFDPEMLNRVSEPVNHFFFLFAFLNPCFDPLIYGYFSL
Test: In vitro inhibition of LH release was determined in rat pituitary cells at a dose of 100 ug of analogue and 1 ng of LHRH
Format: functional, cell-based
Details: Pituitary gland cell
Square brackets hold non-standard residues; d marks the D form. Peptide text beside a SMILES is read from it. 2Nal = N[C@@H](Cc1ccc2ccccc2c1)C(=O)O
reported_metric: Activity

{"columns": ["compound", "recorded_result"],
 "data": [
  ["CC(=O)N[C@@H](Cc1ccc2ccccc2c1)C(=O)N[C@@H](CC(C)C)C(=O)N[C@@H](CCCN=C(N)N)C(=O)N[C@@H](C)C(N)=O (Ac-[2Nal]LRA-NH2)", 49],
  ["CC(=O)N[C@@H](Cc1ccc2ccccc2c1)C(=O)N[C@@H](CCCN=C(N)N)C(=O)N[C@@H](C)C(N)=O", 69],
  ["CCNC(=O)[C@@H]1CCCN1C(=O)[C@H](CCCN=C(N)N)NC(=O)[C@H](CC(C)C)NC(=O)[C@H](Cc1ccc2ccccc2c1)NC(C)=O (Ac-[2Nal]LRP-NHEt)", 9],
  ["CCNC(=O)[C@@H]1CCCN1C(=O)[C@H](CCCN=C(N)N)NC(=O)[C@H](CC(C)C)NC(=O)[C@H](Cc1ccc2ccccc2c1)NC(=O)[C@H](Cc1ccc2ccccc2c1)NC(C)=O (Ac-[2Nal][2Nal]LRP-NHEt)", 98],
  ["CC(=O)N[C@@H](Cc1ccc2ccccc2c1)C(=O)NC(CCCCNC(=O)c1ccccn1)C(=O)N[C@@H](CCCCNC(=O)c1ccccn1)C(=O)NC(CCCN=C(N)N)C(=O)NC(C)C(N)=O (stereo in doubt)", 64]
]}

[I] CCNC(=O)[C@@H]1CCCN1C(=O)[C@H](Cc1ccc2ccccc2c1)NC(C)=O (Ac-[2Nal]-Pro-NHEt)
[II] CC(=O)N[C@@H](Cc1ccc2ccccc2c1)C(=O)N[C@@H](Cc1ccc(O)cc1)C(=O)N[C@@H](Cc1ccc2ccccc2c1)C(=O)N[C@@H](CCCN=C(N)N)C(=O)N[C@@H](C)C(N)=O (Ac-[2Nal]Y[2Nal]RA-NH2)
[III] CC(=O)NC(Cc1ccc2ccccc2c1)C(=O)N[C@@H](CCCCNC(=O)c1ccccn1)C(=O)N[C@@H](CCCN=C(N)N)C(=O)NC(C)C(N)=O (single isomer, unassigned)
Highest Activity first, then in falling order down to the smallest. Answer by listing the labels in the order asked for. II, I, III
